Data origin: patent US4977152A

ED50: recorded values
Biological target: M1 central muscarinic cholinergic receptors (Mus musculus)
Construct: The intrastriatal injection of PZ into mice induces rotational behavior; from tissue; host or cells: right striatum of living female mice (Swiss, CD 1)
Sequence (P12657 1-460): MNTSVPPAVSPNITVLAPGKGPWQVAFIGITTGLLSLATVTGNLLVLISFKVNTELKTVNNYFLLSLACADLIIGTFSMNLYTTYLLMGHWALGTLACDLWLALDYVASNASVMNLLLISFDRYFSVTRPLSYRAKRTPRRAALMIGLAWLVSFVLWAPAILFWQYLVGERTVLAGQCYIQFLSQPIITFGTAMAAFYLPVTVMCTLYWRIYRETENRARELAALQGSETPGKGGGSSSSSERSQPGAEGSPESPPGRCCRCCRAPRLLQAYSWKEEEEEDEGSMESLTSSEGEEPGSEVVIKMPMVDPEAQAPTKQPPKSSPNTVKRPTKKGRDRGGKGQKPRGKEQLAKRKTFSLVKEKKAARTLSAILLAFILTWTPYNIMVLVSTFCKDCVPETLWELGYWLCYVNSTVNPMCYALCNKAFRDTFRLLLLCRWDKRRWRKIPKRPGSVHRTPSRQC
Assay: Antagonism of rotational behavior induced by intrastriatal injection of pirenzepine in mice
Assay type: in vivo, mice (female, Swiss, CD 1)
Settings: ip, mice, i.p. 15 minutes before intrastriatal pirenzepine, 50% reduction in number of rotations, read-out: Pirenzepine antagonism ED50
Where a name gives a salt, the structure may show the parent alone.

# COMPOUND, ED50 [mg/kg]
rows = [
    ("CCN1CCCC1CNc1cc2c(nn1)-c1ccccc1CCC2 (stereo not shown) [SR 95879 A, dihydrochloride]", 0.3),
    ("Cc1cc2c(cc1C)-c1nnc(NCCN3CCCC3)cc1CCC2 [SR 44650 A]", 3),
    ("CN(C)CCNc1cc2c(nn1)-c1ccccc1CCC2 [SR 95824 A]", 3),
    ("CN(C)CCNc1cc2c(nn1)-c1cc([N+](=O)[O-])ccc1CCC2 [SR 44681 A]", 1),
    ("CCN(CC)CCCNc1cc2c(nn1)-c1ccccc1CCC2 [SR 95818 A]", 7),
    ("c1ccc2c(c1)CCCc1cc(NCCN3CCCC3)nnc1-2 [SR 95883 A]", 3),
    ("CCN(CC)CCSc1cc2c(nn1)-c1ccccc1CCC2 [SR 95820 A, hydrochloride]", 8),
    ("O=C1CN(CCNc2cc3c(nn2)-c2ccccc2CCC3)CCO1 [SR 95696 A, hydrochloride]", 3),
    ("CCN(CC)CCNc1cc2c(nn1)-c1ccccc1CCC2 [SR 95640 A]", 3),
    ("Cc1cc2c(cc1C)-c1nnc(NCCN(C(C)C)C(C)C)cc1CCC2 [SR 44664 A]", 3),
    ("c1ccc2c(c1)CCCc1cc(NCCCN3CCOCC3)nnc1-2 [SR 95817 A]", 2),
    ("CN1CCC(Nc2cc3c(nn2)-c2ccccc2CCC3)CC1 [SR 96093 A, dihydrochloride]", 15),
    ("OCCNCCNc1cc2c(nn1)-c1ccccc1CCC2 [SR 95819 A]", 10),
]

---

Molecular target: M1-type muscarinic cholinergic receptor (Rattus norvegicus)
Sequence (P08482 1-460): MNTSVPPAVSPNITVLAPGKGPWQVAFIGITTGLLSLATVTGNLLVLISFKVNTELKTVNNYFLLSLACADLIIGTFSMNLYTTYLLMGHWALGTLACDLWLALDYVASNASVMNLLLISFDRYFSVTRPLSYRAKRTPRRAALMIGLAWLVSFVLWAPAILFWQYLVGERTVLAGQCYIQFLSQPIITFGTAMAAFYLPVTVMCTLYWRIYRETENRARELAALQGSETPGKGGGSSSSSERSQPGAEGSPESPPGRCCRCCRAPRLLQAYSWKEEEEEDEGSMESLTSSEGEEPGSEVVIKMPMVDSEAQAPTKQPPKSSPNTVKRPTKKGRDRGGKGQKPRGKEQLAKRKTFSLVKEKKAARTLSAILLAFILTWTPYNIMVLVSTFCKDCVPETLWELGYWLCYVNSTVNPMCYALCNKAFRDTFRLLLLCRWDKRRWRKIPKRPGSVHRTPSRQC
Test: Test for affinity for the M1-type muscarinic cholinergic receptor: displacement of [3H]pirenzepine on rat hippocampus homogenate
Format: binding
Details: ratio of IC50 M2 (3H-NMS, guinea-pig ileum) to IC50 M1 (3H-pirenzepine, rat hippocampus)
Counter-ions that a name gives are not always drawn.
VALUE TYPE: r = (M2 /M1)

# COMPOUND, TARGET ENTITY, VALUE TYPE, NUMERIC RESULT
rows = [
    ("CN(C)CCOc1cc2c(nn1)-c1ccccc1CC2.Cl", "M1-type muscarinic cholinergic receptor (Rattus norvegicus)", "r = (M2 /M1)", 21),
    ("Cl.Cl.Fc1ccc2c(c1)CCCc1cc(NCCN3CCOCC3)nnc1-2", "M1-type muscarinic cholinergic receptor (Rattus norvegicus)", "r = (M2 /M1)", 40),
    ("CCCCN(CCCC)CCNc1cc2c(nn1)-c1cc(C)c(C)cc1CCC2", "M1-type muscarinic cholinergic receptor (Rattus norvegicus)", "r = (M2 /M1)", 8),
    ("CCN(CC)CCCNc1cc2c(nn1)-c1ccccc1CCC2", "M1-type muscarinic cholinergic receptor (Rattus norvegicus)", "r = (M2 /M1)", 50),
    ("CCN(CC)CCCNc1cc2c(nn1)-c1ccccc1CC2.Cl.Cl", "M1-type muscarinic cholinergic receptor (Rattus norvegicus)", "r = (M2 /M1)", 17),
    ("CN1CCC(Nc2cc3c(nn2)-c2ccccc2CCC3)CC1 [SR 96093 A, dihydrochloride]", "M1-type muscarinic cholinergic receptor (Rattus norvegicus)", "r = (M2 /M1)", 42),
    ("Clc1cc2c(cc1Cl)-c1nnc(NCCN3CCCCC3)cc1CCC2", "M1-type muscarinic cholinergic receptor (Rattus norvegicus)", "r = (M2 /M1)", 16),
    ("CCN(CC)CCNc1cc2c(nn1)-c1cc(C)c(C)cc1CCC2.Cl.Cl", "M1-type muscarinic cholinergic receptor (Rattus norvegicus)", "r = (M2 /M1)", 37),
    ("CN(C)CCNc1cc2c(nn1)-c1ccccc1CCC2", "M1-type muscarinic cholinergic receptor (Rattus norvegicus)", "r = (M2 /M1)", 125),
    ("Cc1cc2ccccc2c2nnc(NCCN3CCOCC3)cc12 [SR 96057 A, dihydrochloride]", "M1-type muscarinic cholinergic receptor (Rattus norvegicus)", "r = (M2 /M1)", 14),
    ("CCN(CC)CCNc1cc2c(nn1)-c1cc([N+](=O)[O-])ccc1CCC2.Cl.Cl", "M1-type muscarinic cholinergic receptor (Rattus norvegicus)", "r = (M2 /M1)", 56),
]

---

ED50: recorded values
Molecular target: M1 central muscarinic cholinergic receptors (Mus musculus, UniProt P12657)
Construct: The intrastriatal injection of PZ into mice induces rotational behavior; from tissue; host or cells: right striatum of living female mice (Swiss, CD 1)
Assay: Antagonism of rotational behavior induced by intrastriatal injection of pirenzepine in mice
Type: in vivo, mice (female, Swiss, CD 1)
Conditions: ip, read-out: Pirenzepine antagonism ED50

# SMILES DATA, TARGET ENTITY, UNIT STRING, ED50
records = [
    ("Cl.Cl.c1ccc2c(c1)CCCc1cc(NCCN3CCOCC3)nnc1-2", "M1 central muscarinic cholinergic receptors (Mus musculus, UniProt P12657)", "mg/kg", 5),
    ("CCN(CC)CCNc1cc2ccc3ccccc3c2nn1.Cl.Cl", "M1 central muscarinic cholinergic receptors (Mus musculus, UniProt P12657)", "mg/kg", 3),
    ("Cl.Cl.c1ccc2c(c1)ccc1cc(NCCN3CCOCC3)nnc12", "M1 central muscarinic cholinergic receptors (Mus musculus, UniProt P12657)", "mg/kg", 10),
    ("CN(C)CCOc1cc2c(nn1)-c1ccccc1CCC2.Cl", "M1 central muscarinic cholinergic receptors (Mus musculus, UniProt P12657)", "mg/kg", 3),
    ("CCN(CC)CCNc1cc2c(nn1)-c1ccccc1CC2.Cl.Cl", "M1 central muscarinic cholinergic receptors (Mus musculus, UniProt P12657)", "mg/kg", 3),
    ("CCN(CC)CCSc1cc2c(nn1)-c1ccccc1CC2.Cl", "M1 central muscarinic cholinergic receptors (Mus musculus, UniProt P12657)", "mg/kg", 8),
    ("CCN(CC)CCNc1cc2c(nn1)-c1cc(Cl)ccc1CCC2.Cl.Cl", "M1 central muscarinic cholinergic receptors (Mus musculus, UniProt P12657)", "mg/kg", 2),
    ("CCN(CC)CCNc1cc2c(nn1)-c1cc([N+](=O)[O-])ccc1CCC2.Cl.Cl", "M1 central muscarinic cholinergic receptors (Mus musculus, UniProt P12657)", "mg/kg", 0.5),
    ("CN(C)CCOc1cc2c(nn1)-c1ccccc1CC2.Cl", "M1 central muscarinic cholinergic receptors (Mus musculus, UniProt P12657)", "mg/kg", 8),
    ("Cl.Cl.c1ccc2c(c1)CCc1cc(NCCN3CCOCC3)nnc1-2", "M1 central muscarinic cholinergic receptors (Mus musculus, UniProt P12657)", "mg/kg", 5),
    ("CCN(CC)CCNc1cc2c(nn1)-c1cc(C)c(C)cc1CCC2.Cl.Cl", "M1 central muscarinic cholinergic receptors (Mus musculus, UniProt P12657)", "mg/kg", 1),
]
